Ref: patent US6642217B2

Test system: Trichophyton tonsurans
Test: Summary of anti-fungal assays (direct addition, agar dilution, liquid culture)
Format: cell-based
Details: stated in words (Tables 1a/1b, text to Table 5)
MEASURED_METRIC: Active against Trichophyton tonsurans

1) C=C(C)C1CCC2(COC(=O)c3ccccc3C(=O)O)CCC3(C)C(CCC4C5(C)CCC(O)C(C)(C)C5CCC43C)C12 (stereo not shown) [Betulin-28-phthalate]	Trichophyton tonsurans
2) C=C(C)[C@@H]1CC[C@]2(COC(=O)c3ccccc3C(=O)O)CC[C@]3(C)[C@H](CC[C@@H]4[C@@]5(C)CC[C@H](OC(=O)c6ccccc6C(=O)O)C(C)(C)[C@@H]5CC[C@]43C)[C@@H]12 [Betulin-3,28-diphthalate]	Trichophyton tonsurans
3) CC1(C)CCC23CCC4(C)C(CCC5C6(C)CCC(OC(=O)CCCC(=O)O)C(C)(C)C6CCC54C)C2C1OC3 (stereo not shown) [Allobetulin-3-glutarate]	Trichophyton tonsurans
